# Study target: soluble guanylate cyclase (sGC) (Homo sapiens (Human), UniProt Q02108+Q02153)
# Sequence (Q02153 whole entry): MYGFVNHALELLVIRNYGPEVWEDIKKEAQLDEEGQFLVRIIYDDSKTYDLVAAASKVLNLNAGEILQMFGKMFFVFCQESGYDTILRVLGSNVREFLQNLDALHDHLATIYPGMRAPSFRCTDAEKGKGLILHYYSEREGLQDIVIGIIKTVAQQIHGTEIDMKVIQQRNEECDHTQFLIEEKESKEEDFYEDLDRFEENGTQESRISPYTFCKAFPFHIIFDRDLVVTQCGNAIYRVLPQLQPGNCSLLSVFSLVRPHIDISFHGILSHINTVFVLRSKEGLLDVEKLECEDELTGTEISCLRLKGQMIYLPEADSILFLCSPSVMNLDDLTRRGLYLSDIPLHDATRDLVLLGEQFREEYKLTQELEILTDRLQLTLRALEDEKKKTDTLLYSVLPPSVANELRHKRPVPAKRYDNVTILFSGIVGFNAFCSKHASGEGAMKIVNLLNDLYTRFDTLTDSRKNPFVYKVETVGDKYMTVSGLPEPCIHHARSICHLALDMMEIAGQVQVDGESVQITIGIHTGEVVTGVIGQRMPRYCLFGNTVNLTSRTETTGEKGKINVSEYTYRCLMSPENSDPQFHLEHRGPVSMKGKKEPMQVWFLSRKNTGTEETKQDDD
# Sequence (Q02108 whole entry): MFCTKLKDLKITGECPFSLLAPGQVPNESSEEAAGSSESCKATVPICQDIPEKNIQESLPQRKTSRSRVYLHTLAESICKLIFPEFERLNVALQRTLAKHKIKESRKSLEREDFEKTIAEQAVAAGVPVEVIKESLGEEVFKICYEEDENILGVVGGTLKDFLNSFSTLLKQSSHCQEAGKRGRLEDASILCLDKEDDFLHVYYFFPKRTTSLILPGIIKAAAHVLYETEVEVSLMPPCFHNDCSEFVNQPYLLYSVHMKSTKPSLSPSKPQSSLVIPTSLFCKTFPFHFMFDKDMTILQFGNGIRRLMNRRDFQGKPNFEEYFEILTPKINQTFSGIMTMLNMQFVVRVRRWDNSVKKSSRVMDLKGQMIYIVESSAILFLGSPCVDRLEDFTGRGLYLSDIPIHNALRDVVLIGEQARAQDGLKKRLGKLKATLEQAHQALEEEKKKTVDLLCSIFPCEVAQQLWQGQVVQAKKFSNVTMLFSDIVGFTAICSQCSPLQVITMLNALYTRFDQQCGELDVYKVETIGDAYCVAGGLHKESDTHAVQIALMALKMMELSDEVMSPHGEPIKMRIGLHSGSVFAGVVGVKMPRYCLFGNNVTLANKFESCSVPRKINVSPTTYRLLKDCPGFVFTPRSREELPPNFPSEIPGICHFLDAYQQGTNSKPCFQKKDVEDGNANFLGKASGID
# Protocol summary: sGC-HEK-cGMP assay, new protocol with DETA-NONOate, LC/MS detection (Example 2C)
# Format: cell-based
# Applied conditions: read-out: Absolute EC50 (uM) - binned
Quantity kind: EC50

// solved cases for EC50 follow
# EC50 of CS(=O)(=O)CCC(=O)Nc1ccnc(-c2cc(-c3ccon3)n(Cc3ccccc3F)n2)n1 [Compound I-573] = 0.101 to 1 µM

# EC50 of O=S(=O)(CCNc1nc(-c2cc(-c3ccon3)n(Cc3ccccc3F)n2)ncc1F)NCCO [Compound I-439] = < 0.1 µM

# EC50 of CC(C)(C(=O)Nc1ccnc(-c2cc(-c3ccon3)n(Cc3ccccc3F)n2)n1)S(C)(=O)=O [Compound I-580] = 0.101 to 1 µM

# EC50 of OCC(F)(F)CNc1nc(-c2cc(-c3ccon3)n(Cc3ccccc3F)n2)ncc1F [Compound I-521] = < 0.1 µM

# EC50 of O=C(Nc1ccnc(-c2cc(-c3ccon3)n(Cc3ccccc3F)n2)n1)c1ccccc1O [Compound I-577] = 0.101 to 1 µM

# EC50 of CC1(C(N)=O)C(=O)Nc2nc(-c3cc(-c4ccon4)n(Cc4ccccc4F)n3)nc(N)c21 (centres unmarked) [Compound I-421] = 0.101 to 1 µM

# EC50 of CC(=O)Nc1ccnc(-c2cc(-c3ccon3)n(Cc3ccccc3F)n2)n1 [Compound I-524] = > 1 µM

# EC50 of COCCC(=O)Nc1ccnc(-c2cc(-c3ccon3)n(Cc3ccccc3F)n2)n1 [Compound I-547] = 0.101 to 1 µM

Hey, quick one: what's EC50 for each of these?
1. CC(C)S(=O)(=O)Nc1nc(-c2cc(-c3ccon3)n(Cc3ccccc3F)n2)ncc1F [Compound I-505]
2. CN(CC1(C(=O)O)CC1)c1nc(-c2cc(-c3cscn3)n(Cc3ccccc3F)n2)ncc1F [Compound I-345]
3. COc1cc(C(=O)Nc2ccnc(-c3cc(-c4ccon4)n(Cc4ccccc4F)n3)n2)on1 [Compound I-554]

Solution:
1: 0.101 to 1 µM; 2: < 0.1 µM; 3: > 1 µM
